Below is a list of entries, each paired with its recorded pIC50 value.
MEASURED_ON: UniProt:Q6PCB7
Sequence (Q6PCB7 whole entry): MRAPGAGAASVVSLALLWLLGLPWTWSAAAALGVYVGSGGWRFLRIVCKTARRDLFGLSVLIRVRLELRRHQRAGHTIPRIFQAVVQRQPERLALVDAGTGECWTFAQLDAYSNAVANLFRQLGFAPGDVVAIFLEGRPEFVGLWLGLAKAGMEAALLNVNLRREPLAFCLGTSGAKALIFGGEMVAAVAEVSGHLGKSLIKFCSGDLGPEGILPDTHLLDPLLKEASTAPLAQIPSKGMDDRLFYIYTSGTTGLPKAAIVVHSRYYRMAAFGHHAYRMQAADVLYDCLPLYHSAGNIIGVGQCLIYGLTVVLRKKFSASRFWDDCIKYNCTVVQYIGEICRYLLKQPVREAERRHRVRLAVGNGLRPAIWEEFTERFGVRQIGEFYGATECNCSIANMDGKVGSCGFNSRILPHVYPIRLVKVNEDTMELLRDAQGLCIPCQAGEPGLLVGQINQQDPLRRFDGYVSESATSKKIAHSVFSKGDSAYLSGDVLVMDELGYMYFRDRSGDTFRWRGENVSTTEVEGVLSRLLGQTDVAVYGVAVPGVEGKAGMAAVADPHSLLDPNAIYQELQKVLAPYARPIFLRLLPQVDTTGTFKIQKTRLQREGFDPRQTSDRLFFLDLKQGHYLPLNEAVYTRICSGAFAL
pIC50: −log10 of the molar value.
RECORDED_ENDPOINT: pIC50

INSERT INTO measurements (chemical_smiles, endpoint_value) VALUES
  ('O=C(CN1CCN(c2ccc(F)cn2)CC1)c1c[nH]c2ccccc12', '< 6.00'),
  ('O=C(CN1CCN(c2ccc(F)cc2)CC1)Nc1nccs1', '< 6.00'),
  ('O=C(CN1CCN(c2cccc(F)c2)CC1)Nc1nc2c(s1)CCCC2', '< 6.00'),
  ('O=C(CN1CCN(c2ccc(F)cn2)CC1)c1ncc2ccccn12', '< 6.00');

###

ASSAY_METHOD_TEXT: 1-Octanol-phosphate buffered saline distribution coefficient, log D of the compound at pH 7.4
Assay type: physicochemical
Each record here notes measured logD.
RECORDED_ENDPOINT: logD

INSERT INTO results (chemical_smiles, endpoint_value) VALUES
  ('CN(C(=O)CN1CCN(c2ccc(F)cn2)CC1)c1nc2c(s1)CCCC2', 3.9),
  ('O=C(CN1CCN(c2ccc(F)cc2)CC1)Nc1nc2c(s1)CCC2', 4),
  ('O=C(CN1CCN(c2ccc(F)cc2)CC1)Nc1nc2c(o1)CCCC2', 3),
  ('O=C(CN1CCN(c2ccc(F)cn2)CC1)c1coc2ccccc12', 3.9),
  ('O=C(CN1CCN(c2ncccn2)CC1)Nc1nc2c(s1)CCCC2', 3.7);
